The following binders are shown together with reported Neutralization IC50, H3-WH95 values.
- target.or.test.system: HA of ca A/Wuhan/359/95 (H3N2) (influenza A virus)
- test.name: cell-based or functional assay
Give the value in mg/L but do not write mg/L after it.

Antibody 10 (antibody, V domains shown) VH: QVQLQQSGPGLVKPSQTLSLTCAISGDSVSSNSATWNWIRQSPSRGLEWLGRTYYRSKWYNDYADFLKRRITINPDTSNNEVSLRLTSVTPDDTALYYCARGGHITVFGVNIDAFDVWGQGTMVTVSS VL: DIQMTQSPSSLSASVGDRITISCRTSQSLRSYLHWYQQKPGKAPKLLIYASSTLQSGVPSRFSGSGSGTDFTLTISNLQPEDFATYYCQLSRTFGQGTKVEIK
8.7
Antibody 5 (antibody, V domains shown) VH: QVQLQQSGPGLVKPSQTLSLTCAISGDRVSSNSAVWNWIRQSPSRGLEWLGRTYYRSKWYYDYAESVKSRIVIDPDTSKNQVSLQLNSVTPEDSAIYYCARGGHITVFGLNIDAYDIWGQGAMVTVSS VL: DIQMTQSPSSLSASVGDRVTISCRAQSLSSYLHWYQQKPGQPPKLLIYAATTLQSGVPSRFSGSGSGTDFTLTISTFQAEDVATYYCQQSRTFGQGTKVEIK
3.72

Given the entry Antibody 6 (antibody, V domains shown) VH: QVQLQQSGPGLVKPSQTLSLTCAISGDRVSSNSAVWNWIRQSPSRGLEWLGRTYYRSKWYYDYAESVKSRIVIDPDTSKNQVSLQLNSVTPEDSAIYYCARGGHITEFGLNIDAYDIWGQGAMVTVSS VL: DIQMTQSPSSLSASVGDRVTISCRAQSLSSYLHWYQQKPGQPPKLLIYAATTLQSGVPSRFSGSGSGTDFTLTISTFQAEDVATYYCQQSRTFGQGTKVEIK , report its measured Neutralization IC50, H3-WH95.
10.5
